Provenance of the data: ChEMBL document CHEMBL4014357

assayed system: Matrix metalloproteinase-9 (Homo sapiens)
Sequence (P14780 whole entry): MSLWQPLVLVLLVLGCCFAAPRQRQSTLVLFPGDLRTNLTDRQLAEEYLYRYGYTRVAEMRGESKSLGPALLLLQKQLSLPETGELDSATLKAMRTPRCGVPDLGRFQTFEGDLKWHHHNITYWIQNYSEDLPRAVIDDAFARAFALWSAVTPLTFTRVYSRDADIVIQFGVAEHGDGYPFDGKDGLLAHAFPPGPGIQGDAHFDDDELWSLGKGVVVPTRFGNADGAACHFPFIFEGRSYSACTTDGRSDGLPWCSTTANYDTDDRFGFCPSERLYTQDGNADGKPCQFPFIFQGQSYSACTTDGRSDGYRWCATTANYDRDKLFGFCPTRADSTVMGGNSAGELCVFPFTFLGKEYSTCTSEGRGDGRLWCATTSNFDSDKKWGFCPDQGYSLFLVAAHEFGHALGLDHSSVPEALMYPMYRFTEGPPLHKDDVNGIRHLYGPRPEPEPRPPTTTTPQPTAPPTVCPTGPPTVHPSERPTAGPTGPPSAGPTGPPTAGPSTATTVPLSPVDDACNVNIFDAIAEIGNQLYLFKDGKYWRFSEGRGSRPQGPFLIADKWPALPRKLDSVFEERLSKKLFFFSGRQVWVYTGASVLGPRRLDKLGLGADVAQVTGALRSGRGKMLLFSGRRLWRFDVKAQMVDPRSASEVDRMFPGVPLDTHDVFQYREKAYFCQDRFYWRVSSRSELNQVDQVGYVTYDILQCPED
pIC50: −log10 of the molar value.
measured metric: pIC50

Entry "O=c1[nH]c(SCc2ccc(-c3ccc(S(=O)(=O)NCCO)cc3)cc2)nc2c1CCC2" — recorded pIC50 = < 5.00

---

assayed system: 72 kDa type IV collagenase (Homo sapiens)
Sequence (P08253 whole entry): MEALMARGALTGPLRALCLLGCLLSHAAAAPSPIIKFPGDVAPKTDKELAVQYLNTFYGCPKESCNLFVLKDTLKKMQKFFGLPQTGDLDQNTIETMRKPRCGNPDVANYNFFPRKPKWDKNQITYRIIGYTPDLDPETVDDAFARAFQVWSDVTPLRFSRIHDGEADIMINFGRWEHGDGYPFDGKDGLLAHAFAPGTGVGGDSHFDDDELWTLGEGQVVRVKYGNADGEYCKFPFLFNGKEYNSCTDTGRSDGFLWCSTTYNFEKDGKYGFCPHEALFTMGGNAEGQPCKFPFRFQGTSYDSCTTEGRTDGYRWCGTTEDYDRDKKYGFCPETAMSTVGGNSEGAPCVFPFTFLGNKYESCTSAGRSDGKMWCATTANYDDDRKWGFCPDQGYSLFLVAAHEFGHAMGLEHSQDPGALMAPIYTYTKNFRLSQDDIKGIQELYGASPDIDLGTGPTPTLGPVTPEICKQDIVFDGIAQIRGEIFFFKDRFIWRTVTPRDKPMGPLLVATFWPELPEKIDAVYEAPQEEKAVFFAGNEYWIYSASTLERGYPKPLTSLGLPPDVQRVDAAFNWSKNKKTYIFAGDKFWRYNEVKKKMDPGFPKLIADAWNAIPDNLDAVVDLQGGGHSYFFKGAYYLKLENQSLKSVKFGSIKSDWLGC
measurement protocol: Inhibition of recombinant human MMP2 expressed in mouse NSO cells using fTHP-15 as substrate preincubated for 30 mins followed by substrate addition measured immediately by fluorescence assay
measured metric: IC50

Entry "O=c1[nH]c(SCc2ccc(-c3ccc(S(=O)(=O)NCCO)cc3)cc2)nc2c1CCC2" — recorded IC50 = > 5 µM

---

assayed system: UniProt P45452
measurement protocol: Inhibition of full length recombinant human MMP13 expressed in mouse NSO cells using varying levels of fTHP-15 as substrate preincubated for 30 mins followed by substrate addition measured immediately by Lineweaver-Burk plot analysis
measured metric: Ki (nM)
Respond with the bare value in nM.

Entry "Cc1ccc(CSc2nc(O)c3c(n2)CCC3)cc1" — recorded Ki = 800

---

assayed system: Collagenase 3 (Homo sapiens, UniProt P45452)
measurement protocol: Inhibition of full length recombinant human MMP13 expressed in mouse NSO cells using fTHP-15 as substrate preincubated for 30 mins followed by substrate addition measured immediately by fluorescence assay
measured metric: pIC50
Scale for pIC50: -log10 of concentration given in mol/L; no unit attached.

Study these solved cases before continuing.
Entry "CC(C)[C@@H](NS(=O)(=O)c1ccc(-c2ccc(CSc3nc4c(c(=O)[nH]3)CCC4)cc2)cc1)C(=O)O" — recorded pIC50 = 8.15

Entry "CNC(=O)[C@@H](NC(=O)c1ccc(-c2ccc(CSc3nc4c(c(=O)[nH]3)CCC4)cc2)o1)C(C)C" — recorded pIC50 = 8.03

Further cases:
Entry "CNC(=O)[C@H](NC(=O)c1ccc(-c2ccc(CSc3nc4c(c(=O)[nH]3)CCC4)cc2)o1)C(C)C" — recorded pIC50 = 6.45
